Assay: water solubility
Assay type: physicochemical
Details: compound I and/or its salts and/or hydrates
Measurement Type: solubility

>>> print(df.to_string())
                                   compound  observed_value
0  COc1c(N2C[C@@H]3CCCN[C@@H]3C2)c(F)cc2c(=O)c(C(=O)O)cn(C3CC3)c12 [compound I]       ~24 mg/mL

The values you see were collected from patent US6270799A.
